Entries and their IC50
tested on: 648629-189-R-J1-PDC complex spheroids viability; experiment: Anticancer human tumor 648629-189-R-J1-PDC patient-derived bladder carcinoma cell line growth inhibition [CLK]; conditions: curve of first compound; second compound 0.1 µM
metric: IC50 (µM)

{"columns": ["molecule", "metric", "comparison symbol", "number"],
 "data": [
  ["CC(CO)NC(=O)c1cc(-c2ccc(Cl)cc2)nn(-c2cnn(C)c2)c1=O (stereo not given) + CNC(=O)c1ccc(Nc2nc(OC3CCCC3)c3c(-c4ccc5nc(C)oc5c4)c[nH]c3n2)c(OC)c1", "IC50", ">", 10],
  ["COC1C=CCC(C)C(C)S(=O)(=O)NC(=O)c2ccc3c(c2)N(CC2CCC21)CC1(CCCc2cc(Cl)ccc21)CO3 (stereo not given) + CNC(=O)c1ccc(Nc2nc(OC3CCCC3)c3c(-c4ccc5nc(C)oc5c4)c[nH]c3n2)c(OC)c1", "IC50", "=", 1.84],
  ["O=c1[nH]cc(F)c(=O)[nH]1 + CN1CCN(c2cc(C(=O)Nc3cc4cc(-c5cnn(C)c5)ccc4cn3)ccn2)CC1", "IC50", "=", 1.08],
  ["C=C(F)C(=O)N1CCN(c2nc(OCC3CCCN3C)nc3c2CCN(c2cccc4cccc(Cl)c24)C3)CC1CC#N (stereo not given) + CN1CCN(c2cc(C(=O)Nc3cc4cc(-c5cnn(C)c5)ccc4cn3)ccn2)CC1", "IC50", "=", 5.43],
  ["CC1COCCN1c1cc(C2(S(C)(=N)=O)CC2)nc(-c2ccnc3[nH]ccc23)n1 (stereo not given) + CNC(=O)c1ccc(Nc2nc(OC3CCCC3)c3c(-c4ccc5nc(C)oc5c4)c[nH]c3n2)c(OC)c1", "IC50", "=", 3.43]
]}

Measured values drawn from PubChem BioAssay AID2060602 for this set.
